- Tested Target: human NKp30 (human) (UniProt O14931)
- Sequence (O14931 19-135 limits assumed): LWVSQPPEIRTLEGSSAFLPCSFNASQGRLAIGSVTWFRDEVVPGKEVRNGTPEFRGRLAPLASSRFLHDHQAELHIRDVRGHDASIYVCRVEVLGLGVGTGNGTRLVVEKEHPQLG
- Test Protocol: BLI, ratio to ΔB7-H6_wt
Field: KD improvement compared to ΔB7-H6 wt. Provide a value for each of the binders that follow.
Response body: numeric value in fold, unit text excluded.

Any idea what KD improvement compared to ΔB7-H6 wt was measured for ΔB7-H6_S3#6-SEED-PGLALA (bispecific antibody, part only; not given: SEED Fc chains and hu225 Fab, part only) chain, part: DLKVEMMAGGTQITPLNDNVTIFCNIFYSQPLNITHMGITWFWKSLTFDKEVKVFEFWGDHQEAFRPGAIVSPWRLKSGDASLRLPGIQLEEAGEYRCEVVVTPYKAQGTVQLEVVASPAS ? 12.4

Any idea what KD improvement compared to ΔB7-H6 wt was measured for ΔB7-H6_S3#3-SEED-PGLALA (bispecific antibody, part only; not given: SEED Fc chains and hu225 Fab, part only) chain, part: DLKVEMMAGGTQITPLNDNVTIFCNIFYSQPLNITHMGITWFWKSLTFDKEVKVFEFFGDHQEAFRPGAIVSPWRLKSGDASLRLPGIQLEEAGEYRCEVFVTPYKAQGTVQLEVVASPAS ? 3.9

Any idea what KD improvement compared to ΔB7-H6 wt was measured for ΔB7-H6_S2#11-SEED-PGLALA (bispecific antibody, part only; not given: SEED Fc chains and hu225 Fab, part only) chain, part: DLKVEMMAGGTQITPLNDNVTIFCNIFYSQPLNITTMGITWFWKSLTFDKEVKVFEFWQDHQEAFRPGAIVSPWRLKSGDASLRLPGIQLEEAGEYRCEVVVTPLKAQGTVQLEVVASPAS ? 1.7

Any idea what KD improvement compared to ΔB7-H6 wt was measured for ΔB7-H6_S3#30-SEED-PGLALA (bispecific antibody, part only; not given: SEED Fc chains and hu225 Fab, part only) chain, part: DLKVEMMAGGTQITPLNDNVTIFCNIFYSQPLNITEMGITWFWKSLTFDKEVKVFEFWGDHQEAFRPGAIVSPWRLKSGDASLRLPGIQLEEAGEYRCEVIVTPLKAQGTVQLEVVASPAS ? 3.3

Any idea what KD improvement compared to ΔB7-H6 wt was measured for ΔB7-H6_S3#5-SEED-PGLALA (bispecific antibody, part only; not given: SEED Fc chains and hu225 Fab, part only) chain, part: DLKVEMMAGGTQITPLNDNVTIFCNIFYSQPLNITVMGITWFWKSLTFDKEVKVFEFWGDHQEAFRPGAIVSPWRLKSGDASLRLPGIQLEEAGEYRCEVVVTPYKAQGTVQLEVVASPAS ? 18.2

Any idea what KD improvement compared to ΔB7-H6 wt was measured for ΔB7-H6_S3#22-SEED-PGLALA (bispecific antibody, part only; not given: SEED Fc chains and hu225 Fab, part only) chain, part: DLKVEMMAGGTQITPLNDNVTIFCNIFYSQPLNITEMGITWFWKSLTFDKEVKVFEFWGDHQEAFRPGAIVSPWRLKSGDASLRLPGIQLEEAGEYRCEVVVTPYKAQGTVQLEVVASPAS ? 4.3
